Test system: NCI-H1666
Test: relative viability (nuclei count vs DMSO), 5 days (fraction); higher = more cells survive
Details: first compound 4 µM
READOUT NAME: relative viability
Answers are plain numbers.

Respectfully, I request relative viability for each entry included below.
1. C[C@@H]1CN(CC(=O)Nc2ccc3c(c2)Cc2cccc(-c4cc(=O)cc(N5CCOCC5)o4)c2S3)C[C@H](C)O1 + COc1cc2c(Oc3ccc(NC(=O)C4(C(=O)Nc5ccc(F)cc5)CC4)cc3F)ccnc2cc1OCCCN1CCOCC1 [Foretinib] (partner 0.25 µM)
2. C[C@@H]1CN(CC(=O)Nc2ccc3c(c2)Cc2cccc(-c4cc(=O)cc(N5CCOCC5)o4)c2S3)C[C@H](C)O1 + CC(=O)Nc1cccc(-n2c(=O)n(C3CC3)c(=O)c3c(Nc4ccc(I)cc4F)n(C)c(=O)c(C)c32)c1 [Trametinib] (partner 0.02 µM)
3. C[C@@H]1CN(CC(=O)Nc2ccc3c(c2)Cc2cccc(-c4cc(=O)cc(N5CCOCC5)o4)c2S3)C[C@H](C)O1 + Cc1nc(Nc2ncc(C(=O)Nc3c(C)cccc3Cl)s2)cc(N2CCN(CCO)CC2)n1 [Dasatinib] (partner 0.075 µM)
4. C[C@@H]1CN(CC(=O)Nc2ccc3c(c2)Cc2cccc(-c4cc(=O)cc(N5CCOCC5)o4)c2S3)C[C@H](C)O1 + Nc1ncn([C@H]2C[C@H](O)[C@@H](CO)O2)c(=O)n1 [Decitabine] (partner 2 µM)
5. COc1cc(N2CCC(C(N)=O)CC2)ccc1Nc1nc(N)c(Cl)c(Nc2ccccc2S(=O)(=O)C(C)C)n1 [HG-5-88-01] + Nc1ncn([C@H]2C[C@H](O)[C@@H](CO)O2)c(=O)n1 [Decitabine] (partner 2 µM)
6. C[C@@H]1CN(CC(=O)Nc2ccc3c(c2)Cc2cccc(-c4cc(=O)cc(N5CCOCC5)o4)c2S3)C[C@H](C)O1 + CS(=O)(=O)CCNCc1ccc(-c2ccc3ncnc(Nc4ccc(OCc5cccc(F)c5)c(Cl)c4)c3c2)o1 [Lapatinib] (partner 2 µM)
7. C[C@@H]1CN(CC(=O)Nc2ccc3c(c2)Cc2cccc(-c4cc(=O)cc(N5CCOCC5)o4)c2S3)C[C@H](C)O1 + CC(=O)c1c(C)c2cnc(Nc3ccc(N4CCNCC4)cn3)nc2n(C2CCCC2)c1=O [Palbociclib] (partner 0.5 µM)

Reply text:
1: 0.812; 2: 0.738; 3: 0.788; 4: 0.669; 5: 0.566; 6: 0.579; 7: 0.662

* * *

Test system: SW 1573
Test: relative viability (nuclei count vs DMSO), 5 days (fraction); higher = more cells survive
Conditions: first compound 2.53 µM
Consider the following compounds; for each one, report its relative viability.
Give bare numbers.

Hi team, please reply with relative viability for each item in this list.
1. CCCCCCCCCCCC1=C(O)C(=O)C=C(O)C1=O [Embelin] + C[C@@H](Oc1cc(-c2cnn(C3CCNCC3)c2)cnc1N)c1c(Cl)ccc(F)c1Cl [Crizotinib] (partner 1 µM)
2. CCCCCCCCCCCC1=C(O)C(=O)C=C(O)C1=O [Embelin] + CC(=O)c1c(C)c2cnc(Nc3ccc(N4CCNCC4)cn3)nc2n(C2CCCC2)c1=O [Palbociclib] (partner 0.5 µM)
3. CCCCCCCCCCCC1=C(O)C(=O)C=C(O)C1=O [Embelin] + CS(=O)(=O)N1CCN(Cc2cc3nc(-c4cccc5[nH]ncc45)nc(N4CCOCC4)c3s2)CC1 [Pictilisib] (partner 1 µM)
4. CCCCCCCCCCCC1=C(O)C(=O)C=C(O)C1=O [Embelin] + O=C(c1cc(Cc2n[nH]c(=O)c3ccccc23)ccc1F)N1CCN(C(=O)C2CC2)CC1 [Olaparib] (partner 8 µM)
5. CCCCCCCCCCCC1=C(O)C(=O)C=C(O)C1=O [Embelin] + Cc1cc(Nc2cc(N3CCN(C)CC3)nc(Sc3ccc(NC(=O)C4CC4)cc3)n2)n[nH]1 [Tozasertib] (partner 0.1 µM)
6. CCCCCCCCCCCC1=C(O)C(=O)C=C(O)C1=O [Embelin] + CC1(C)CCC(c2ccc(Cl)cc2)=C(CN2CCN(c3ccc(C(=O)NS(=O)(=O)c4ccc(N[C@H](CCN5CCOCC5)CSc5ccccc5)c(S(=O)(=O)C(F)(F)F)c4)cc3)CC2)C1 [Navitoclax] (partner 0.5 µM)
7. CCCCCCCCCCCC1=C(O)C(=O)C=C(O)C1=O [Embelin] + Cc1nc(Nc2ncc(C(=O)Nc3c(C)cccc3Cl)s2)cc(N2CCN(CCO)CC2)n1 [Dasatinib] (partner 0.075 µM)
8. CCCCCCCCCCCC1=C(O)C(=O)C=C(O)C1=O [Embelin] + CC(=O)Nc1cccc(-n2c(=O)n(C3CC3)c(=O)c3c(Nc4ccc(I)cc4F)n(C)c(=O)c(C)c32)c1 [Trametinib] (partner 0.02 µM)

Reply text:
[0.84, 0.37, 0.555, 0.443, 0.167, 1.02, 0.458, 0.625]

Provide each entry's relative viability from the list below.
1. CCCCCCCCCCCC1=C(O)C(=O)C=C(O)C1=O [Embelin] + COc1cc2c(Oc3ccc(NC(=O)C4(C(=O)Nc5ccc(F)cc5)CC4)cc3F)ccnc2cc1OCCCN1CCOCC1 [Foretinib] (partner 0.25 µM)
2. CCCCCCCCCCCC1=C(O)C(=O)C=C(O)C1=O [Embelin] + C[C@]1(O)C[C@@H](c2nc(-c3ccc4ccc(-c5ccccc5)nc4c3)c3c(N)nccn32)C1 [Linsitinib] (partner 1 µM)

Reply text:
[1.08, 0.75]
